Record form. Attribute: IC50. Fill in for each entry.
biological target: Recombinant human KIF18A (1-467His-tagged) protein (Homo sapiens, UniProt Q8NI77); construct: Recombinant human KIF18A (1-467His-tagged) protein; His; assay: KIF18A enzyme assay (microtubule-stimulated ATPase activity, ADP-Glo); settings: 30 nM KIF18A, 75 μM ATP, 30 μg/mL pig microtubules; read-out: Inhibitory activity against KIF18A IC50
Sequence (Q8NI77 1-467): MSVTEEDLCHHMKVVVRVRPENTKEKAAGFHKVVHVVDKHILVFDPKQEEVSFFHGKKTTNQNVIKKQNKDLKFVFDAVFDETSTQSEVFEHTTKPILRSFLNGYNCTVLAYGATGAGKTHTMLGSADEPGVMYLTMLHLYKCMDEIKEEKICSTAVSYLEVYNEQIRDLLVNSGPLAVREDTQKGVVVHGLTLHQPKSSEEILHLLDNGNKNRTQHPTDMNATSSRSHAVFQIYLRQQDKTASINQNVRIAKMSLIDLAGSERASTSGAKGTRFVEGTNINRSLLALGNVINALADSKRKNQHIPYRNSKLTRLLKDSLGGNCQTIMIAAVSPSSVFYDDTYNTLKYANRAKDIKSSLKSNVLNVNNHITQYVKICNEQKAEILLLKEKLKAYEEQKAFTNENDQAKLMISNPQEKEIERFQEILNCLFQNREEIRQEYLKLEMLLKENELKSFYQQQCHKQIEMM
Sequence (P02550 whole entry partner): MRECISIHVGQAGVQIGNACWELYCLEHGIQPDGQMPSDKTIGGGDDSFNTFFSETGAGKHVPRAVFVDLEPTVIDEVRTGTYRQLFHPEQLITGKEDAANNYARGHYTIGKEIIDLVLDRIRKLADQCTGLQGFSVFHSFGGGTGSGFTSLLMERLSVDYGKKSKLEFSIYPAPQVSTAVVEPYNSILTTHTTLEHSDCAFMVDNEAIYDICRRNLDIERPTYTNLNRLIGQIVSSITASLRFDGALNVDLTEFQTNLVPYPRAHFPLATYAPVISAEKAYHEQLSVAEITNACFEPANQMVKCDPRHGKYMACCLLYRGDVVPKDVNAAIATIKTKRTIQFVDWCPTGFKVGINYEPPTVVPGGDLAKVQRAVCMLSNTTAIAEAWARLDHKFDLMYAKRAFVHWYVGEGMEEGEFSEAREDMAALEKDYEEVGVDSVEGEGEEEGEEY
Sequence (P02554 whole entry partner): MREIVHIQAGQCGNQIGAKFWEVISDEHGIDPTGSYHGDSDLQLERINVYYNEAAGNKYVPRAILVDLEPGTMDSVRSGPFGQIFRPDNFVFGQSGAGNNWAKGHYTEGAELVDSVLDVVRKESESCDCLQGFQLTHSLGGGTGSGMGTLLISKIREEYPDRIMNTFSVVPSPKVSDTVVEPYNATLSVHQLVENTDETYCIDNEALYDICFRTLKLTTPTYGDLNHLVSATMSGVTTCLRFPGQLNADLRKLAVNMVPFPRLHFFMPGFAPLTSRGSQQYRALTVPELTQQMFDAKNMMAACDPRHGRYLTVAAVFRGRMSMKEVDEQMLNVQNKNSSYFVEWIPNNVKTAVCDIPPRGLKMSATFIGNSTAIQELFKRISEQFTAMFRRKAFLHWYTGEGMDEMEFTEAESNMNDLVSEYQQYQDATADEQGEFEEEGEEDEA

Find the recorded IC50 belonging to COc1ccc(NC(=O)c2ccc(NS(=O)(=O)CCO)cc2N2CCC3(CC2)CC3)nc1OC1CCC1 [Compound 263] and report it.
≤ 0.1 µM

Could you share which IC50 value was measured for O=C(Nc1ccc([N+](=O)[O-])c(N2CCC(F)(F)CC2)n1)c1ccc(NS(=O)(=O)CCO)cc1N1CCC2(CC1)CC2 [Compound 65] ?
≤ 0.1 µM

Give its IC50 value. Item: CC1(F)CCN(c2nc(C(=O)Nc3ccc(S(=O)(=O)NCCO)cc3N3CCC4(CC3)CC4)ccc2[N+](=O)[O-])C1 (centres unmarked) [Compound 184]
0.1 to 0.5 µM

Can you share its IC50? I mean this compound: C[C@@H]1CN(c2cc(C(=O)Nc3cnc(S(=O)(=O)N[C@@H](C)CO)cc3N3CCC4(CC3)CC4)ccc2[N+](=O)[O-])CCO1 [Compound 223]
0.1 to 0.5 µM

Entry C[C@H](CO)S(=O)(=O)Nc1ccc(NC(=O)c2ccc([N+](=O)[O-])c(N3CCC(F)(F)CC3)c2)c(N2CCC3(CC2)CC3)c1 [Compound 46] : reported IC50 = ?
0.1 to 0.5 µM

Requested field: IC50. Item: C[C@@H]1CN(c2nc(C(=O)Nc3ccc(NS(=O)(=O)[C@@H](C)CO)cc3N3CCC4(CC3)CC4)ccc2OCF)CCO1 [Compound 559]
≤ 0.1 µM

Could you share which IC50 value was measured for O=C(Nc1ccc(OCF)c(N2CCC(F)CC2)c1)c1ccc(NS(=O)(=O)CCO)cc1N1CCC2(CC1)CC2 [Compound 393] ?
≤ 0.1 µM

Query (compound): C[C@@H]1CN(c2cc(NC(=O)c3cnc(NS(=O)(=O)CCO)cc3N3CCC4(CC3)CC4)ccc2[N+](=O)[O-])CCO1 [Compound 98] ; field requested: IC50
≤ 0.1 µM

Consider the compound O=C(Nc1ccc(OCF)c(N2CCOCC2)n1)c1ccc(S(=O)(=O)NCCO)cc1N1CCC2(CC1)CC2 [Compound 444] and give its measured IC50.
≤ 0.1 µM

Give the measured IC50 of C[C@H](CO)NS(=O)(=O)c1cc(N2CCC3(CC2)CC3)c(C(=O)Nc2ccc(OCF)c(N3CCO[C@H](C)C3)c2)cn1 [Compound 480] .
≤ 0.1 µM

I am curious: what IC50 value has been reported for COc1ccc(C(=O)Nc2cnc(S(=O)(=O)N[C@@H](C)CO)cc2N2CCC3(CC2)CC3)nc1N1CCO[C@H](C)C1 [Compound 383] ?
≤ 0.1 µM

# get_value(readout='IC50', item= O=C(Nc1ccc(OCF)c(N2CC3CC3C2)n1)c1ccc(S(=O)(=O)NCCO)cc1N1CCC2(CC1)CC2 (centres unmarked) [Compound 442] )
≤ 0.1 µM

Would you mind telling me what IC50 value was observed for CC1(F)CCN(c2cc(NC(=O)c3cnc(S(=O)(=O)NCCO)cc3N3CCC4(CC3)CC4)ccc2[N+](=O)[O-])C1 (centres unmarked) [Compound 120] ?
≤ 0.1 µM

# get_value(readout='IC50', item= C[C@@H](CO)NS(=O)(=O)c1cc(N2CCC3(CC2)CC3)c(NC(=O)c2ccc([N+](=O)[O-])c(N3CCC(F)(F)CC3)c2)cn1 [Compound 221] )
0.1 to 0.5 µM

Requested read-out: IC50. Entry: CSc1ccc(NC(=O)c2ccc(NS(=O)(=O)CCO)cc2N2CCC3(CC2)CC3)cc1N1CCO[C@@H](C)C1 [Compound 579]
≤ 0.1 µM

Which IC50 value belongs to O=C(Nc1ccc([N+](=O)[O-])c(N2CCC(F)CC2)c1)c1cnc(S(=O)(=O)NCCO)cc1N1CCC2(CC1)CC2 [Compound 121] ?
≤ 0.1 µM

Look up IC50: CC(C)(CO)Nc1nc(NC(=O)c2cnc(NS(=O)(=O)CCO)cc2N2CCC3(CC2)CC3)ccc1OCF [Compound 491]
≤ 0.1 µM

Query (compound): O=C(Nc1ccc(S(=O)(=O)NCCO)cc1N1CCC2(CC1)CC2)c1ccc([N+](=O)[O-])c(N2CCOCC2)c1 [Compound 60] ; field requested: IC50
0.1 to 0.5 µM

# IC50 lookup, item C[C@H](CO)NS(=O)(=O)c1cc(N2CCC3(CC2)CC3)c(C(=O)Nc2ccc([N+](=O)[O-])c(N3CCC(F)(F)CC3)c2)cn1 [Compound 126]
≤ 0.1 µM

Quick check: IC50 of CSc1ccc(NC(=O)c2cnc(NS(=O)(=O)[C@H](C)CO)cc2N2CCC3(CC2)CC3)nc1N1CCO[C@H](C)C1 [Compound 640] ?
≤ 0.1 µM

Field request: IC50 | item: COc1ccc(NC(=O)c2ccc(NS(=O)(=O)[C@H](C)CO)cc2N2CCC3(CC2)CC3)nc1N1CCO[C@H](C)C1 [Compound 272]
≤ 0.1 µM

// query IC50 value for entry CC1(F)CCN(c2nc(NC(=O)c3ccc(S(=O)(=O)NCCO)cc3N3CCC4(CC3)CC4)ccc2[N+](=O)[O-])C1 (centres unmarked) [Compound 88]
≤ 0.1 µM

What measured IC50 goes with COc1ccc(C(=O)Nc2ccc(NS(=O)(=O)CCO)cc2N2CCC3(CC2)CC3)nc1N1CCO[C@@H](C)C1 [Compound 323] ?
≤ 0.1 µM

For the compound shown here, O=C(Nc1ccc(OCF)c(N2CC3CC3C2)c1)c1cnc(S(=O)(=O)NCCO)cc1N1CCC2(CC1)CC2 (centres unmarked) [Compound 474] , give the reported IC50.
≤ 0.1 µM

Looking for the measured IC50 of C[C@H]1CN(c2cc(NC(=O)c3cnc(NS(=O)(=O)CCO)cc3N3CCC4(CC3)CC4)ccc2[N+](=O)[O-])CCO1 [Compound 99] , can you help?
≤ 0.1 µM

What value of measured IC50 is listed for O=C(Nc1ccc([N+](=O)[O-])c(N2CCOCC2)n1)c1cnc(S(=O)(=O)NCCO)cc1N1CCC2(CC1)CC2 [Compound 156] ?
≤ 0.1 µM
